Reference source: patent US20130315843A1

Target: human TRPA1 (Homo sapiens)
Sequence (O75762 whole entry): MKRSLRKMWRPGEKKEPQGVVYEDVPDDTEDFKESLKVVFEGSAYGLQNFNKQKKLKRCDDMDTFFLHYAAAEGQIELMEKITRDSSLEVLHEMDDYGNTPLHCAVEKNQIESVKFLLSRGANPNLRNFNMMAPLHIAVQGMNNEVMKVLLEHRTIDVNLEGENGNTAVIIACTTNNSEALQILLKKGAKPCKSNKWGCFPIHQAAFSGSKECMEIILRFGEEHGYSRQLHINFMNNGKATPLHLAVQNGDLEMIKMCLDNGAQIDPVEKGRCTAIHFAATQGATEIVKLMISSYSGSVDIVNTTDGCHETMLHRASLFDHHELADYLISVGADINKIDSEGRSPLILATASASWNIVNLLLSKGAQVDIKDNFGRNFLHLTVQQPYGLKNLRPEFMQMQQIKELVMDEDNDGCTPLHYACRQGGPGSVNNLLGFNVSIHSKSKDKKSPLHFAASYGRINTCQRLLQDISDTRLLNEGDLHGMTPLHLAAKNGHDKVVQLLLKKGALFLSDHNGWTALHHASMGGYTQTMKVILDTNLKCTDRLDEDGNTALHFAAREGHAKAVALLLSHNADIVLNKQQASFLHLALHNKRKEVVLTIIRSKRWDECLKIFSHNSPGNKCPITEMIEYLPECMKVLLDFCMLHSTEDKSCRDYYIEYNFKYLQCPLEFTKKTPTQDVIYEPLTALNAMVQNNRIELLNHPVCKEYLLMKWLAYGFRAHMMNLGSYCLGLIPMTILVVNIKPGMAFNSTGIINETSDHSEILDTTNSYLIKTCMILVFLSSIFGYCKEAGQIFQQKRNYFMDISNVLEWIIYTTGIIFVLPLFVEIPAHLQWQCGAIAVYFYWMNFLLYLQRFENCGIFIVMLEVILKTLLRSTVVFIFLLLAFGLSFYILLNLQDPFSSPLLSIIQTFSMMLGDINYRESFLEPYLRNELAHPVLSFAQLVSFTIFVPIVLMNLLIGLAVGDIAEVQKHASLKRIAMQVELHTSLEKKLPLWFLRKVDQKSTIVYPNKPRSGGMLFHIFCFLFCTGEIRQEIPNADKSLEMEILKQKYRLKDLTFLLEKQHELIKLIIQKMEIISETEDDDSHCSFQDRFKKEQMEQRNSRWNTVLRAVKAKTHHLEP
Experiment: FLIPR Ca2+ assay, reduction of hydrogen peroxide activation of TRPA1
Type: cell-based
Design: expressed in transfected cells
Conditions: compound 100 μM against 200 μM hydrogen peroxide; Sets 1-4
REPORTED PROPERTY: % Reduction of Hydrogen Peroxide TRPA1 Activation (%)

| COMPOUND | TESTED SYSTEM | UNIT STRING | READOUT VALUE |
| --- | --- | --- | --- |
| [Cu+].[I-] [copper(i) iodide] | human TRPA1 (Homo sapiens) | % | 90.4 |
| CC(S)CS (stereo not shown) [1,2-propanedithiol] | human TRPA1 (Homo sapiens) | % | 68.8 |
| [Cl][Fe]([Cl])[Cl] [ferric chloride] | human TRPA1 (Homo sapiens) | % | 53.3 |
| C=C(C)c1ccc(C)cc1 [alpha,p-dimethylstyrene] | human TRPA1 (Homo sapiens) | % | 57.2 |

----------
Molecular target: human TRPV1 (Homo sapiens, UniProt Q8NER1)
Sequence (Q8NER1 whole entry): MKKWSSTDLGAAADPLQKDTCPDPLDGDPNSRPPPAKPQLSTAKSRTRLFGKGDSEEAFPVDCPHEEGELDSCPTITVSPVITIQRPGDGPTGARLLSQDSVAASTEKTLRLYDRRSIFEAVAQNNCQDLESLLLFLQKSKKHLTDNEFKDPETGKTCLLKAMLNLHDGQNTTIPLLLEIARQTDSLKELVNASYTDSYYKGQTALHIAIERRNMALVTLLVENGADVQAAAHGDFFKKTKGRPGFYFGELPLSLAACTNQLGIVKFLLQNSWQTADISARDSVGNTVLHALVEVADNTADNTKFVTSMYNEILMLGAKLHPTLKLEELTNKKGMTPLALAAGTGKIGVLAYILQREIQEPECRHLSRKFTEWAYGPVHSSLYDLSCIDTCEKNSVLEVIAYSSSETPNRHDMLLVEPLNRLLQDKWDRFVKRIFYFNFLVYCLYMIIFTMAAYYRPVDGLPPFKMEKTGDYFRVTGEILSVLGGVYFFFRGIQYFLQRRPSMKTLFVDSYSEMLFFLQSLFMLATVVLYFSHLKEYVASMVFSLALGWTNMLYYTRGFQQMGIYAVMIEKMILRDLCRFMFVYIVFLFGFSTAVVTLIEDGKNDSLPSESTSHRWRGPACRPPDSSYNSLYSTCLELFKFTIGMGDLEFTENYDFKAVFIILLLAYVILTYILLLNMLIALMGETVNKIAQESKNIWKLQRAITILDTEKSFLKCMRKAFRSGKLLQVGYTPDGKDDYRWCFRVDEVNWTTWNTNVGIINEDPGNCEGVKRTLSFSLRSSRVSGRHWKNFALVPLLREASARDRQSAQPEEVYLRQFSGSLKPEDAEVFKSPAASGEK
Test: FLIPR Ca2+ assay, reduction of L-Menthol activation of TRPV1
Conditions: read-out: % Reduction of L-Menthol TRPV1 Activation
Counter-ions that a name gives are not always drawn.
Classification by inhibition at 100 µM follows these ranges: lo = under 30%, med = from 30% up to 40%, hi = 40% and over

| MOLECULE | QUALITATIVE LABEL |
| --- | --- |
| CC(=O)OCC1CCCO1 (centres unmarked) [tetrahydrofurfuryl acetate] | med |
| COc1nccnc1CC(C)C | med |
| O=COCc1ccccc1 [benzyl formate] | lo |
| COc1ccccc1C(=O)O | lo |
| CCCCOC(=O)CCCCCCCCC(=O)OCCCC [dibutyl sebacate] | lo |
| C=CCSCC=C [diallyl sulfide] | med |
| CCCCCCCC/C=C\CCCCCCCC(=O)OCC [ethyl oleate] | lo |
| CCCCCCCCCCCC(=O)OC [methyl laurate] | med |
| CCCCOC(=O)c1ccc(O)cc1 [butyl 4-hydroxybenzoate] | hi |
| c1ccc(SSc2ccccc2)cc1 [diphenyl disulfide] | hi |
| COc1ccc(OC)cc1 | hi |
| CCOC(=O)C(=O)CC(=O)CC [ethyl 2,4-dioxohexanoate] | hi |
| CC(=O)c1nccs1 | lo |
| C=C[C@H]1C[N@@]2CC[C@H]1C[C@H]2[C@H](O)c1ccnc2ccc(OC)cc12 [quinine hydrochloride dihydrate] | lo |

----------
Biological target: human TRPV1 (Homo sapiens)
Assay: FLIPR Ca2+ assay, reduction of hydrogen peroxide activation of TRPV1
Type: cell-based
Set-up: expressed in transfected cells
Conditions: antagonist 400 μM against 500 μM hydrogen peroxide

| COMPOUND | UNIT STRING | inhibition at 400 µM |
| --- | --- | --- |
| CCC(C)COC(=O)CC(C)C (stereo not shown) [2-Methylbutyl isovalerate] | % | 79 |
| CCC(=O)OCCOc1ccccc1 [Phenoxyethyl Propionate] | % | 60 |
| CCCN(CCC)CCC [Tripropylamine] | % | 63 |
| CCCCCC(CC)OC(C)=O (stereo not shown) [3-Octyl Acetate] | % | 90 |
| CC(C)C(=O)OCc1ccc2c(c1)OCO2 [Piperonyl Isobutyrate] | % | 63 |
| CC(C)=CC1CC(C)CCO1 (stereo not shown) | % | 53 |
| CCCCOC(=O)C(C)C [Butyl Isobutyrate] | % | 58 |
